These data points were gathered from PubChem BioAssay.

What inhibition was measured for each of the following?
assay_name: human hepatoma cell viability loss – ATP luminescence, cytotoxicity control for P. falciparum antimalarial project, primary screen (AID 2303);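 also: 0% = DMSO wells and 100% = digitonin-killed cells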
particulars: HepG2 viability, 24-48 h, at 10 µM, active compounds read high
Answer in %, number only, no unit symbol.

Q. Could you tell me which inhibition is on file for CCCNCc1ccc(-c2ccc(CN(CCOC)C(=O)COc3ccccc3Cl)cc2)nc1 ?
A. -1

Q. Another molecule to check: COc1ccc(CN2CCC(NCc3cccc(-n4ccnc4)c3)CC2)cc1
A. 10

Q. Queued: COc1ccc2c(CCNc3nc(SC)ncc3C(=O)NCCc3ccc(F)cc3)c[nH]c2c1
A. 3

Q. Okay, and COc1ccc(-c2nc(NC(=O)CSc3ccccc3)sc2C)cc1 ?
A. 6

====

Exercise: for every item that follows, state its recorded inhibition.
assay_system: L-lactate dehydrogenase (Plasmodium falciparum (isolate CDC / Honduras)) (UniProt Q27743)
Sequence (Q27743 whole entry, looked up): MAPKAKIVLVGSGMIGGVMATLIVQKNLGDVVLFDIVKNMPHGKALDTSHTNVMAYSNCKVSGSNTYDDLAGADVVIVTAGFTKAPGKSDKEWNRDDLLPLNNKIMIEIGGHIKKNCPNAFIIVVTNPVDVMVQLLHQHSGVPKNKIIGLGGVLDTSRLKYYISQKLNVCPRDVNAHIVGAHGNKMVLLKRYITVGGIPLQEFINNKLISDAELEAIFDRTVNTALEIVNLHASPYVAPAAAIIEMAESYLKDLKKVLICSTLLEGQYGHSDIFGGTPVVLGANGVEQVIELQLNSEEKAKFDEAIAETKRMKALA
assay_name: PfLDH activity inhibition – cell lysate, 3D7 strain, counter-screen for P. falciparum growth inhibition project (AID 2304);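 also: 0% = vehicle and 100% = reference inhibitor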
particulars: P. falciparum 3D7 crude extract, LDH APAD/NBT absorbance; at 2 µM; active compounds read high
The source made the active and inactive calls. The rule behind the calls is not given here.

Q. Quick one: inhibition of CC(C)c1ccc(CN2CCCCC(NC(=O)c3cc(-c4cccc(F)c4)cs3)C2)cc1 (stereo not drawn) ?
A. 1% (inactive)

Q. Also C[C@@H]1CN(c2ccnc3ccc(Sc4ccc(Oc5ccccc5)cc4)cc23)C[C@H](C)N1 , if possible.
A. 7% (inactive)

Q. Now consider NC(=O)C1CCN(Cc2ccc(-c3ccc(-c4nc5ccc(F)cc5[nH]4)cc3)cc2)CC1 and answer again.
A. 7% (inactive)

====

Record form. Attribute: inhibition. Fill in for each entry.
assay_system: L-lactate dehydrogenase (Plasmodium falciparum (isolate CDC / Honduras))
assay_name: PfLDH activity inhibition – cell lysate, 3D7 strain, counter-screen for P. falciparum growth inhibition project (AID 2304);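 also: 0% = vehicle and 100% = reference inhibitor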
particulars: P. falciparum 3D7 crude extract, LDH APAD/NBT absorbance; at 2 µM; active compounds read high
Give the value, in units of %, as a plain number.

Q. I am curious: what inhibition value has been reported for N=C(N)c1ccc(Oc2ccc(C(=N)N)cc2)cc1 ?
A. -3

Q. Follow-up item: Cc1cc(NCCC(=O)NCc2cccc(F)c2)nc(NCCc2ccc(F)cc2)n1
A. -1

Q. Here is the next compound: N#Cc1ccc(NC(=NC2CCN(Cc3ccccc3)CC2)Nc2ccccc2Cl)c(O)c1
A. 0

Q. Next compound up: Cc1cccc(C(=O)Nc2ccnc(N3CCC(N(C)Cc4cccc(C#N)c4)CC3)c2)c1
A. -2

Q. Then COc1ccc(C(=O)Nc2ccc(-c3nc4ccc(C)cc4[nH]3)cc2)cc1OC ?
A. 0

Q. Then this compound: CCNC(=O)Nc1cccc(-c2cccc(-c3nc4c(C)cccc4[nH]3)c2)c1
A. 4

Q. Same question for CCC1(CC)CN(c2ccccc2)c2ccc(O)cc2S(=O)(=O)C1CC(C)C (stereo not drawn) please.
A. 2

Q. Another compound to look at: CC(C)CCN1CCCN(Cc2cccc(NC(=O)c3cc4ccccc4s3)c2)CC1
A. 1

====

Exercise: state measured inhibition for each of the compounds provided.
assay_name: human hepatoma cell viability loss – ATP luminescence, cytotoxicity control for P. falciparum antimalarial project, primary screen (AID 2303);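 also: 0% = DMSO wells and 100% = digitonin-killed cells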
particulars: HepG2 viability, 24-48 h, at 10 µM, active compounds read high
Active and inactive are the calls of the source.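 The calls were made as follows: active = inhibition above 50%; inactive = the rest.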

Q. Recorded inhibition for Cc1cc(NC(=O)c2coc3cc(F)c(N4C[C@@H](C)N(C)[C@@H](C)C4)cc23)ccc1-n1ccnc1 , please?
A. -9% (inactive)

Q. Query Cc1cccc2[nH]c(-c3ccc(-c4ccc(CN5CCN(CCO)CC5)cc4)cc3)nc12 next
A. 20% (inactive)

Q. For OCC1CCN(Cc2cccc(-c3ccc(-c4nc5ccc(F)cc5[nH]4)cc3)c2)CC1 then?
A. 11% (inactive)

Q. Now consider O=C(CCCCCNC(=O)c1ccc(O)c(-c2ccc(Cl)c(Cl)c2)c1)NC1CCCCCC1 and answer again.
A. -4% (inactive)

Q. Let us now turn to Cc1ccc(C)c2sc(N(CCCn3ccnc3)C(=O)c3ccco3)nc12
A. 28% (inactive)

Q. Next compound up: Oc1ccc(-c2ccccc2)cc1CN1CCCCC1
A. 3% (inactive)

Q. How about this compound: Cc1cc(C(=O)Nc2ccc3c(c2)CCN3C2CCN(Cc3ccc(O)cc3)C2)no1 (configuration not stated)
A. 3% (inactive)

====

assay_name: antimalarial activity against Dd2 strain (AID 2302);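 also: 0% = DMSO untreated growth and 100% = chloroquine plus artemisinin killed control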
particulars: P. falciparum Dd2 in RBCs, LDH growth readout, 72 h; at 2 µM; active compounds read high
Label yes (1) when growth inhibition is at or above 40%; otherwise label no (0).

Q. Determine whether this molecule has growth inhibition no lower than 40%: O=C(c1cccs1)N(Cc1cccc(-c2ccc(CNCCc3ccccc3)cc2)c1)C1CCN(Cc2ccccc2)CC1
A. yes (1)

Q. Cool, now O=C(Nc1ccc(C(=O)OC[C@@H]2CCCN3CCCC[C@H]23)cc1)c1ccc(Cl)c(Cl)c1
A. no (0)

Q. Now the molecule O=C(/C=C/c1ccc(Cl)cc1Cl)N1CCC(CCN2CCC(c3c[nH]c4ccccc34)CC2)CC1
A. no (0)

Q. Lookup CN(C(=O)Cc1ccc(Cl)cc1)C1CCN(CCCCCNC(=O)/C=C/c2ccc(Cl)c(Cl)c2)CC1
A. no (0)

Q. Proceed to O=C(/C=C/c1ccc(C(F)(F)F)cc1)N1CCC(CCN2CCC(c3c[nH]c4ccccc34)CC2)CC1
A. yes (1)

Q. Repeat for the following molecule: c1ccc2sc(Sc3ncnc4sccc34)nc2c1
A. yes (1)

====

assay_name: inhibition of 3D7 malaria parasite growth – strain 3D7 (AID 2306);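 also: 0% = DMSO wells and 100% = chloroquine plus artemisinin control wells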
particulars: P. falciparum 3D7 erythrocytic growth, LDH absorbance, 72 h; at 2 µM; active compounds read high
Task for the reader: assign each of the following compounds its reported growth inhibition.
Please reply with the bare figure in % and do not write the unit itself.

Q. Dear colleague, I am looking for the recorded growth inhibition of the following compound: COc1ccc(O)c(Cc2cnc3nc(N)[nH]c(=O)c3c2C)c1
A. 96

Q. Also check CC(C)N1CCN(CCCCNc2c3ccccc3nc3ccccc23)CC1
A. 100

Q. Follow-up item: CCCn1c(SCC(=O)Nc2cc(C(F)(F)F)ccc2Cl)n[nH]c1=O
A. 96

Q. Lookup Cc1nnsc1C(=O)Nc1cccc(-c2cccc(-c3nc4ccc(F)cc4[nH]3)c2)c1
A. 100

Q. # repeat for O=C(Nc1cccc(CN2CCN(Cc3cccc(O)c3)CC2)c1)c1cc2ccccc2s1
A. 86

Q. Same read-out for CC(C)N(Cc1ccc(-c2ccc(C(F)(F)F)cc2)cc1)C(=O)Cn1c(SCc2cccc(F)c2F)cc(=O)c2cc(CN3CCCCC3)ccc21 ?
A. 103

Q. Repeat with C[C@H](O)[C@@](C)(CO)NCc1ccc2c3c(cccc13)-c1ccccc1-2
A. 95

Q. Try O=C(/C=C/c1ccc(Cl)c(Cl)c1)NCCCCCN1CCCC(CNC(=O)/C=C/c2ccccc2)C1 (centres undefined) next.
A. 98

Q. Can you check CCc1ccccc1-c1csc(C(=O)NCC2CCN(Cc3ccc(C(C)(C)C)cc3)C2)c1 (centres undefined) next?
A. 90

Q. Same read-out for COc1ccc2nccc(CCC3(O)CCC(NCc4cc5c(cc4F)SCC(=O)N5)CC3)c2c1 (centres undefined) ?
A. 87

Q. Another compound: COc1ccc2nccc(NC(=O)N3CCC(NCc4cc5c(F)ccc(F)c5[nH]4)CC3)c2n1
A. 99

Q. Then O=C(NCCc1ccccc1)N(Cc1ccccc1-c1cccc(CNCCc2ccccc2)c1)C1CCN(Cc2ccccc2)CC1 ?
A. 100

Q. Try this compound next: O=C(N[C@@H](Cc1ccccc1)[C@H](O)CNC1CCc2ccccc2C1)c1cc(C2CCCC2)cc(N2CCCC2=O)c1 (some centres undefined)
A. 99

Q. Follow-up entry: COc1cc(OC)cc(-c2nn(-c3ccc([N+](=O)[O-])cc3Cl)c(=S)n2Cc2ccco2)c1
A. 101

Q. Repeat for the following compound: Cc1ccc(Nc2nc(NN=Cc3cccc(O)c3)nc(Nc3ccc([N+](=O)[O-])cc3)n2)cc1C
A. 101

Q. Do the same for Cc1ccc(S(=O)(=O)NC2=NC(C)(C)N(OCc3ccc(Cl)c(Cl)c3)C(N)=N2)cc1 please
A. 88

Q. Field entry: CCOC(=O)c1c(C)noc1Nc1ccc(OC)cc1
A. 99

Q. Now this one: Cc1cccc2[nH]c(-c3ccc(-c4ccc(CN5CCN(CCO)CC5)cc4)cc3)nc12
A. 100

Q. Quick one: O=C(/C=C/c1ccc(Cl)c(Cl)c1)NCCCCCN1CCCC(C(=O)Nc2ccc(Cl)c(Cl)c2)C1 (centres undefined)
A. 100

Q. And what about the compound CC(=O)NCCCCC1NC2(C(=O)N(Cc3ccc(C(C)(C)C)cc3)c3ccccc32)C2C(=O)N(C3CCCCC3)C(=O)C12 (centres undefined) ?
A. 91

Q. Proceed to O=C(NC1CCCCC1)N(Cc1cccc(-c2ccc(CNCc3ccc4c(c3)OCO4)cc2)c1)C1CCN(Cc2ccccc2)CC1
A. 92

Q. Query CC1N=C(N)N=C(N)N1OCc1cccc2ccccc12 (centres undefined) next
A. 93

Q. Now consider NC(=O)C1CCN(Cc2cccc(-c3cccc(-c4nc5ccc(F)cc5[nH]4)c3)c2)CC1 .
A. 100

Q. Another compound to check: Cc1cnn(-c2cccc(C(=O)NC3CCC(CCN4CCc5ccc(C#N)cc5CC4)CC3)c2)c1 (centres undefined)
A. 94

Q. # repeat for N#Cc1ccc(CN2CCC(Oc3ccc(NC(=O)c4cccs4)cc3)CC2)cc1
A. 83

Q. Note, next up: CN(C)c1ccc(C=Cc2ccc3ccccc3n2)c(Cl)c1
A. 94

Q. # repeat for Cn1nc(-c2ccc(CNC3CCc4ccccc43)cc2)c2cnc(NCCN3CCCC3)nc21 (centres undefined)
A. 99

Q. What would you report for CC1SC(=S)NC1C(=O)O (centres undefined) ?
A. 94

Q. // same read-out, input: COc1cc2ccccc2c(OC)c1CCNCCCCNCCc1c(OC)cc2ccccc2c1OC
A. 99
